# MIC per record follows
System: E. faecalis ATCC 29212
experimentNotes: MIC, CLSI broth microdilution (Table 1)
Type: cell-based
experimentalSetup: Enterococcus faecalis, ATCC29212; Gram positive; MHB, 37° C., 16-20 hours; read-out: MIC E. faecalis ATCC 29212
Counter-ions that a name gives are not always drawn.

compound | testedTarget | MIC, mg/L
Cc1ccc(-c2ccn3c(=O)c(C(=O)O)cc(C4CC4)c3c2C)cc1 [Example 33 K salt] | E. faecalis ATCC 29212 | 0.064
Cc1c(-c2cc(N)cc(F)c2)ccn2c(=O)c(C(=O)O)cc(C3CC3)c12 [Example 9 K salt] | E. faecalis ATCC 29212 | 0.032
Cc1c(-c2ccc(N)c(Cl)c2)ccn2c(=O)c(C(=O)O)cc(C3CC3)c12 [Example 11 K salt] | E. faecalis ATCC 29212 | 0.016
Cc1c(-c2ccc(NS(C)(=O)=O)cc2)ccn2c(=O)c(C(=O)O)cc(C3CC3)c12 [Example 14 K salt] | E. faecalis ATCC 29212 | 0.064
Cc1cc(-c2ccn3c(=O)c(C(=O)O)cc(C4CC4)c3c2C)ccc1N [Example 19 K salt] | E. faecalis ATCC 29212 | 0.032
C[C@H]1COc2c(N3CCN(C)CC3)c(F)cc3c(=O)c(C(=O)O)cn1c23 | E. faecalis ATCC 29212 | 1
Cc1c(-c2cc[nH]c2)ccn2c(=O)c(C(=O)O)cc(C3CC3)c12 [Example 43 K salt] | E. faecalis ATCC 29212 | 0.125

----------
Test system: K. pneumoniae ATCC 33495
experimentNotes: MIC, CLSI broth microdilution (Table 2)
Assay type: cell-based
experimentalSetup: Klebsiella pneumoniae, ATCC33495; Gram negative; MHB, 37° C., 16-20 hours; read-out: MIC K. pneumoniae ATCC 33495
Structures can show the parent of a compound that is named as a salt.

compound | testedTarget | measurementQualifier | MIC [µg/mL]
Cc1c(-c2ccc(C(=O)O)cc2)ccn2c(=O)c(C(=O)O)cc(C3CC3)c12 [Example 37 K salt] | K. pneumoniae ATCC 33495 | > | 8
Cc1c(N2CC[C@H](N)C2)c(F)cn2c(=O)c(C(=O)O)cc(C3CC3)c12 [Example 26 K salt] | K. pneumoniae ATCC 33495 | = | 0.016
CC(=O)Nc1ccc(-c2ccn3c(=O)c(C(=O)O)cc(C4CC4)c3c2C)cc1 [Example 13 K salt] | K. pneumoniae ATCC 33495 | = | 0.5
Cc1c(-c2cc[nH]c2)ccn2c(=O)c(C(=O)O)cc(C3CC3)c12 [Example 43 K salt] | K. pneumoniae ATCC 33495 | = | 0.125
Cc1cc(-c2ccn3c(=O)c(C(=O)O)cc(C4CC4)c3c2C)ccc1N [Example 19 K salt] | K. pneumoniae ATCC 33495 | = | 0.25
Cc1c(-c2cccc(N)c2)c(F)cn2c(=O)c(C(=O)O)cc(C3CC3)c12 [Example 4 K salt] | K. pneumoniae ATCC 33495 | = | 0.25
Cc1c(-c2cccc(F)c2)ccn2c(=O)c(C(=O)O)cc(C3CC3)c12 [Example 10 K salt] | K. pneumoniae ATCC 33495 | = | 0.25
Cc1c(-c2ccc(NC(N)=O)cc2)ccn2c(=O)c(C(=O)O)cc(C3CC3)c12 [Example 24 K salt] | K. pneumoniae ATCC 33495 | = | 0.5
Cc1c(C2=CCNCC2)ccn2c(=O)c(C(=O)O)cc(C3CC3)c12 | K. pneumoniae ATCC 33495 | = | 0.125
COc1c(N2C[C@@H]3CCCN[C@@H]3C2)c(F)cc2c(=O)c(C(=O)O)cn(C3CC3)c12 [Moxyfloxacin, reference compound] | K. pneumoniae ATCC 33495 | = | 0.125

----------
Test system: P. aeruginosa ATCC 27853
experimentNotes: MIC, CLSI broth microdilution (Table 2)
Format: cell-based
experimentalSetup: Pseudomonas aeruginosa, ATCC27853; Gram negative; MHB, 37° C., 16-20 hours; read-out: MIC P. aeruginosa ATCC 27853
Structures can show the parent of a compound that is named as a salt.

compound | MIC
Cc1c(-c2ccc(C(=O)O)cc2)c(F)cn2c(=O)c(C(=O)O)cc(C3CC3)c12 [Example 41 K salt] | > 8 µg/mL
Cc1c(-c2ccnc(F)c2)ccn2c(=O)c(C(=O)O)cc(C3CC3)c12 [Example 20 K salt] | 2 to 4 µg/mL
Cc1c(-c2ccc(NS(C)(=O)=O)cc2)ccn2c(=O)c(C(=O)O)cc(C3CC3)c12 [Example 14 K salt] | > 8 µg/mL

----------
Test system: S. pneumonia ATCC 49619
experimentNotes: MIC, CLSI broth microdilution (Table 1)
Assay type: cell-based
experimentalSetup: Streptococcus pneumoniae, ATCC49619; Gram positive; MHB, 37° C., 16-20 hours; read-out: MIC S. pneumonia ATCC 49619
Where a name gives a salt, the structure may show the parent alone.

molecule | testedTarget | MIC
Cc1c(-c2ccc(N)cc2F)ccn2c(=O)c(C(=O)O)cc(C3CC3)c12 [Example 7 K salt] | S. pneumonia ATCC 49619 | 0.032 to 0.064 µg/mL
Cc1c(-c2ccc(C(=O)O)cc2)c(F)cn2c(=O)c(C(=O)O)cc(C3CC3)c12 [Example 41 K salt] | S. pneumonia ATCC 49619 | 0.5 to 1 µg/mL
Cc1cc(-c2ccn3c(=O)c(C(=O)O)cc(C4CC4)c3c2C)ccc1N [Example 19 K salt] | S. pneumonia ATCC 49619 | 0.064 to 0.125 µg/mL

----------
# MIC per record follows
Tested on: E. faecium ATCC 19434
experimentNotes: MIC, CLSI broth microdilution (Table 1)
Type: cell-based
experimentalSetup: Enterococcus faecium, ATCC19434; Gram positive; MHB, 37° C., 16-20 hours; read-out: MIC E. faecium ATCC 19434
Where a name gives a salt, the structure may show the parent alone.

compound | MIC
Cc1c(-c2cc(F)c(N)cc2F)c(F)cn2c(=O)c(C(=O)O)cc(C3CC3)c12 [Example 38 K salt] | > 8 µg/mL
Cc1c(C2=CCNCC2)ccn2c(=O)c(C(=O)O)cc(C3CC3)c12 [Example 42] | > 8 µg/mL
Cc1c(N2CCNCC2)ccn2c(=O)c(C(=O)O)cc(C3CC3)c12 [Example 34 K salt] | > 8 µg/mL

----------
Tested on: K. pneumoniae ATCC 33495
experimentNotes: MIC, CLSI broth microdilution (Table 2)
Format: cell-based
experimentalSetup: Klebsiella pneumoniae, ATCC33495; Gram negative; MHB, 37° C., 16-20 hours; read-out: MIC K. pneumoniae ATCC 33495
Counter-ions that a name gives are not always drawn.

molecule | testedTarget | MIC
Cc1cc(-c2ccn3c(=O)c(C(=O)O)cc(C4CC4)c3c2C)c(Cl)cc1N [Example 30 K salt] | K. pneumoniae ATCC 33495 | 2 to 4 µg/mL
Cc1c(-c2cc(Cl)c(N)c(Cl)c2)ccn2c(=O)c(C(=O)O)cc(C3CC3)c12 [Example 29 K salt] | K. pneumoniae ATCC 33495 | 0.5 to 1 µg/mL
Cc1c(-c2ccc(Cl)cc2)ccn2c(=O)c(C(=O)O)cc(C3CC3)c12 [Example 45 K salt] | K. pneumoniae ATCC 33495 | 0.5 to 1 µg/mL
COc1ccc(-c2ccn3c(=O)c(C(=O)O)cc(C4CC4)c3c2C)cc1 [Example 47 K salt] | K. pneumoniae ATCC 33495 | 1 to 2 µg/mL
Cc1c(-c2ccc(N)cc2)ccn2c(=O)c(C(=O)O)cc(C3CC3)c12 [Example 18 K salt] | K. pneumoniae ATCC 33495 | 0.064 to 0.25 µg/mL
Cc1c(-c2ccc(N)cc2F)ccn2c(=O)c(C(=O)O)cc(C3CC3)c12 [Example 7 K salt] | K. pneumoniae ATCC 33495 | 0.125 to 0.25 µg/mL
Cc1ccc(-c2ccn3c(=O)c(C(=O)O)cc(C4CC4)c3c2C)cc1 [Example 33 K salt] | K. pneumoniae ATCC 33495 | 0.5 to 1 µg/mL
Cc1c(N2CCC[C@H](N)C2)ccn2c(=O)c(C(=O)O)cc(C3CC3)c12 [Example 35 K salt] | K. pneumoniae ATCC 33495 | 0.125 to 0.5 µg/mL
Cc1c(N2CCNCC2)ccn2c(=O)c(C(=O)O)cc(C3CC3)c12 [Example 34 K salt] | K. pneumoniae ATCC 33495 | 0.125 to 0.5 µg/mL
